FYI, the data here is from paper PMC9070039.

Test system: A375 cells
Assay: MTT cytotoxicity assay
Assay type: cell-based
Settings: Homo sapiens, A-375, 48 h
# reported IC50; entries follow

Please report the measured IC50 for Cc1n[nH]c2c1C1(C(C#N)=C(N)O2)c2ccccc2-c2c1n[nH]c(=O)c2C#N (centres unmarked)
> 100 µM

====

Tested on: A375 cells
Assay: MTT cytotoxicity assay
Assay type: cell-based
Settings: Homo sapiens, A-375, 48 h
Description: At first, in order to compare anti-cancer properties, the synthesized compounds 5a–j were evaluated against A549 cells, MCF-7 cells, A375 cells, PC3 cells, LNCaP cells and HDF cells lines using the MTT colorimetric assay. The activity is expressed as 50% growth inhibitory concentration (IC50) values at 48 h. We used DMSO (1%) as negative control and Etoposide as positive control. […]
measured-endpoint: IC50

In the examples that follow, each entry is paired with its recorded IC50.
[
  {
    "molecule": "CC1(C)CC(=O)C2=C(C1)OC(N)=C(C#N)C21c2ccccc2-c2c1n[nH]c(=O)c2C#N (stereo not shown) [5d]",
    "IC50": "> 100 µM"
  },
  {
    "molecule": "COC(=O)c1nn(-c2ccccc2)c2c1C1(C(C#N)=C(N)O2)c2ccccc2-c2c1n[nH]c(=O)c2C#N (stereo not shown) [5h]",
    "IC50": "> 100 µM"
  },
  {
    "molecule": "COc1cc([C@@H]2c3cc4c(cc3[C@@H](O[C@@H]3O[C@@H]5CO[C@@H](C)O[C@H]5[C@H](O)[C@H]3O)[C@H]3COC(=O)[C@H]23)OCO4)cc(OC)c1O [Etoposide, reference compound]",
    "IC50": "25.3 µM"
  },
  {
    "molecule": "Cc1nn(-c2ccccc2)c2c1C1(C(C#N)=C(N)O2)c2ccccc2-c2c1n[nH]c(=O)c2C#N (stereo not shown) [5e]",
    "IC50": "> 100 µM"
  }
]

Supply reported IC50 belonging to this molecule: Cn1c2c(c(=O)n(C)c1=O)C1(C(C#N)=C(N)O2)c2ccccc2-c2c1n[nH]c(=O)c2C#N (stereo not shown) [5a]
70.7 µM

Please report IC50 for the following molecule: Cc1nn(-c2cccc(Cl)c2)c2c1C1(C(C#N)=C(N)O2)c2ccccc2-c2c1n[nH]c(=O)c2C#N (stereo not shown) [5g]
> 100 µM

Please give the documented IC50 of N#CC1=C(N)Oc2c(c(=O)oc3ccccc23)C12c1ccccc1-c1c2n[nH]c(=O)c1C#N (stereo not shown) [5i]
> 100 µM

Specify IC50 for N#CC1=C(N)Oc2[nH]c(=S)[nH]c(=O)c2C12c1ccccc1-c1c2n[nH]c(=O)c1C#N (stereo not shown) [5c] and stop.
> 100 µM

Look up and state reported IC50 for N#CC1=C(N)OC2=C(C(=O)c3ccccc32)C12c1ccccc1-c1c2n[nH]c(=O)c1C#N (stereo not shown) [5j]
> 100 µM

Note down IC50 recorded for N#CC1=C(N)Oc2[nH]c(=O)[nH]c(=O)c2C12c1ccccc1-c1c2n[nH]c(=O)c1C#N (stereo not shown) [5b]
> 100 µM
